# system: Nuclear receptor ROR-gamma (Mus musculus)
# experiment_notes: qHTS for inhibitors of ROR gamma transcriptional activity; note: nearly all actives have a fitted effect of over 60% in size
# condition_details: Drosophila S2 Gal4-RORgamma UAS-luciferase reporter, 20 h; series mostly up to 53.6 µM
# Excerpt: NIH Molecular Libraries Probe Production Network [MLPCN] NIH Chemical Genomics Center [NCGC] […] Small molecule inhibitors of ROR gamma activity are detected by a decrease in luciferase reporter activity. […]
The campaign covered roughly 310,000 compounds. About 17,000 (5.5%) were called active. Another 11% or so got no clear call; they are omitted. Calls come from the whole dose curve; as a rule, active = well fitted inhibition curve with a large enough effect; inconclusive = small, poorly fitted or top-dose-only effect, or effect the other way; inactive = no such curve, though single readings can be large or run the other way. This is one part of a sample in which actives are shown more often than they occur.
I would appreciate it if you answered using one of these outcomes: active, inactive

See these solved cases before continuing.
## Input Record lookup: outcome of this test for CCc1cccc(C)c1N1C(=O)CN(Cc2ccccc2)C1=S ?
## Output inactive

## Input Record lookup: outcome of this test for CSCC[C@H](NC(=O)N1CCn2c1nc1ccccc12)C(=O)NCc1ccc2c(c1)OCO2 ?
## Output inactive

## Input Record lookup: outcome of this test for CCC(C)(C)n1nnnc1C(c1ccc(OC)c(OC)c1)N1CCN(C(=O)c2ccco2)CC1 (stereo not given) ?
## Output inactive

## Input Record lookup: outcome of this test for C=Cn1cc[n+](CC(=O)c2ccc(OC)c(OC)c2)c1 ?
## Output inactive

Next:
## Input Record lookup: outcome of this test for O=c1c(-c2cccc(Cl)c2)c[nH]n1-c1ccccc1 ?
## Output inactive

## Input Record lookup: outcome of this test for CC(=O)Oc1c2c(c3c(c1CC=C(C)C)O[C@@]14C(=CC5CC1C(C)(C)OC4(C/C=C(\C)C(=O)O)C5=O)C3=O)OC(C)(CCC=C(C)C)C=C2 (stereo not given in full) ?
## Output active

## Input Record lookup: outcome of this test for Cc1cccc(NC(=O)CCN2CC(C)CC(C)C2)c1 (stereo not given) ?
## Output inactive

###

# system: Nuclear receptor ROR-gamma (Mus musculus)
# experiment_notes: qHTS for inhibitors of ROR gamma transcriptional activity; note: nearly all actives have a fitted effect of over 60% in size
# condition_details: Drosophila S2 Gal4-RORgamma UAS-luciferase reporter, 20 h; series mostly up to 53.6 µM
Out of some 310,000 compounds screened, about 17,000 (5.5%) were called active. Another 11% or so got no clear call; they are omitted. The call rests on the fitted dose curve; in most records, active means well fitted inhibition curve with a large enough effect; inconclusive means small, poorly fitted or top-dose-only effect, or effect the other way; inactive means no such curve, though single readings can be large or run the other way. Shown is part of a subset that was picked to be rich in actives.
I would appreciate it if you answered using one of these outcomes: t for active, f for inactive

## Input Record lookup: outcome of this test for Fc1ccc(COc2ccc(-c3nnco3)cc2)cc1 ?
## Output f

## Input Record lookup: outcome of this test for COc1cccc(-n2cc(C(=O)O)c3ccccc3c2=O)c1 ?
## Output f

## Input Record lookup: outcome of this test for N#CCC(=O)NC1CCC(CC2CCC(NC(=O)CC#N)CC2)CC1 (stereo not drawn) ?
## Output f

## Input Record lookup: outcome of this test for CCn1cc(CN2CCN(CC(C)(C)C)C(CCO)C2)c2ccccc21 (stereo not drawn) ?
## Output f

## Input Record lookup: outcome of this test for CC(NC(=O)C(=O)N/N=C/c1ccc(Cl)cc1)c1ccccc1 (stereo not drawn) ?
## Output f

## Input Record lookup: outcome of this test for COc1cccc(-n2c(=S)[nH]c3c(oc4ccccc43)c2=O)c1 ?
## Output t

## Input Record lookup: outcome of this test for Cc1nc2ccccc2cc1OCc1ccc(F)cc1 ?
## Output f

## Input Record lookup: outcome of this test for CSCCC(NS(=O)(=O)c1ccccc1F)C(=O)N1CC=C(c2ccccc2)CC1 (stereo not drawn) ?
## Output f

## Input Record lookup: outcome of this test for CC(NC(=S)Nc1ccccc1)C1COc2ccccc2O1 (stereo not drawn) ?
## Output t

## Input Record lookup: outcome of this test for O=C(Nc1c2c(nn1-c1cccc(Cl)c1)CS(=O)(=O)C2)c1cccs1 ?
## Output f

## Input Record lookup: outcome of this test for CC(=O)Nc1ccc(Nc2ncnc3c2nnn3Cc2ccccc2Cl)cc1 ?
## Output f

## Input Record lookup: outcome of this test for FC(F)(F)c1cccc(N/N=C/c2ccccc2)c1 ?
## Output f

## Input Record lookup: outcome of this test for O=C(NCc1ccco1)/C(=C/c1ccco1)NC(=O)c1ccccc1 ?
## Output f

## Input Record lookup: outcome of this test for CC(c1ccco1)N(C(=O)Nc1ccccc1)C1CCCCC1 (stereo not drawn) ?
## Output f

## Input Record lookup: outcome of this test for Cc1ccc(S(=O)(=O)NCCC(=O)Nc2cccc(S(N)(=O)=O)c2)cc1C ?
## Output f

## Input Record lookup: outcome of this test for O=S(=O)(c1ccc(Cl)cc1)c1nc(-c2ccccc2F)oc1NCCN1CCOCC1 ?
## Output f

## Input Record lookup: outcome of this test for Cc1cc(=O)oc2c(C)c(OCC(=O)NCCN3CCOCC3)ccc12 ?
## Output f

## Input Record lookup: outcome of this test for Cc1ccc(S(=O)(=O)NCCC(=O)Nc2ccc(C)c(Cl)c2)cc1C ?
## Output f

## Input Record lookup: outcome of this test for COc1ccc(C2c3[nH]c4ccccc4c3C[C@H]3C(=O)N(CC(C)C)CC(=O)N23)c(OC)c1 (stereo partly drawn) ?
## Output f

## Input Record lookup: outcome of this test for O=C(Nc1ccccc1)c1ccco1 ?
## Output f

## Input Record lookup: outcome of this test for COC(=O)C1=CN(Cc2ccc(OC)cc2)C=C(C(=O)OC)C1c1ccc(O)c(OC)c1 ?
## Output f

## Input Record lookup: outcome of this test for Cc1ccnc(NC(=O)CCNS(=O)(=O)c2ccc(C)c(C)c2)c1 ?
## Output t

## Input Record lookup: outcome of this test for Fc1ccc(COc2cccc(-c3n[nH]c(=S)o3)c2)cc1 ?
## Output t

###

# system: Nuclear receptor ROR-gamma (Mus musculus) (UniProt P51450)
# Sequence (P51450 whole entry, looked up): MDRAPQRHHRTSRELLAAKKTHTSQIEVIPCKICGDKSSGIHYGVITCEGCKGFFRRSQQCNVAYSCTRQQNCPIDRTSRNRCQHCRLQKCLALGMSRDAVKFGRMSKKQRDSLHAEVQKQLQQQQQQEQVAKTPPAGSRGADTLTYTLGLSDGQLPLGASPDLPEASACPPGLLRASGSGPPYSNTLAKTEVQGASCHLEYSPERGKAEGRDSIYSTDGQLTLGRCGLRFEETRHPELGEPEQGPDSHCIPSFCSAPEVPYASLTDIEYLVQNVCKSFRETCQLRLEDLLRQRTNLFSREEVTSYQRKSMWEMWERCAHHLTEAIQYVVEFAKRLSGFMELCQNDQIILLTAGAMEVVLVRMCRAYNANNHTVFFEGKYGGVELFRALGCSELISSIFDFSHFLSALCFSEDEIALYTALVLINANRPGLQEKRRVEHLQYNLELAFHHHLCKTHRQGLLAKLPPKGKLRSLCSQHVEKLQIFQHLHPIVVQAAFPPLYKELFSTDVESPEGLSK
# experiment_notes: qHTS for inhibitors of ROR gamma transcriptional activity; note: nearly all actives have a fitted effect of over 60% in size
# condition_details: Drosophila S2 Gal4-RORgamma UAS-luciferase reporter, 20 h; series mostly up to 53.6 µM
Out of some 310,000 compounds screened, about 17,000 (5.5%) were called active. Roughly 11% stayed inconclusive and do not appear here. Calls come from the whole dose curve; as a rule, active = well fitted inhibition curve with a large enough effect; inconclusive = small, poorly fitted or top-dose-only effect, or effect the other way; inactive = no such curve, though single readings can be large or run the other way. The sample holds actives, similar compounds and a random draw of the others, so the mix is not that of the screen.
I would appreciate it if you answered using one of these outcomes: active, inactive

See these solved cases before continuing.
## Input Record lookup: outcome of this test for Cc1ccc(C(=O)CCC(=O)N(C)CC(=O)Nc2c(Cl)cccc2Cl)cc1 ?
## Output inactive

## Input Record lookup: outcome of this test for COc1ccc(-c2oc3ncn(Cc4ccco4)c(=N)c3c2-c2ccc(OC)cc2)cc1 ?
## Output active

## Input Record lookup: outcome of this test for CN(C(=O)COC(=O)CNC(=O)C12CC3CC(CC(C3)C1)C2)c1ccccc1 ?
## Output inactive

// next entry
## Input Record lookup: outcome of this test for COc1cc(C2/C(=C(\O)c3ccc4c(c3)CC(C)O4)C(=O)C(=O)N2c2nnc(C)s2)cc(OC)c1OC (configuration not stated) ?
## Output inactive

###

# system: Nuclear receptor ROR-gamma (Mus musculus) (UniProt P51450)
# experiment_notes: qHTS for inhibitors of ROR gamma transcriptional activity; note: nearly all actives have a fitted effect of over 60% in size
# condition_details: Drosophila S2 Gal4-RORgamma UAS-luciferase reporter, 20 h; series mostly up to 53.6 µM
Among all 310,000 compounds or so, about 17,000 (5.5%) were called active. Roughly 11% stayed inconclusive and do not appear here. The call rests on the fitted dose curve; in most records, active means well fitted inhibition curve with a large enough effect; inconclusive means small, poorly fitted or top-dose-only effect, or effect the other way; inactive means no such curve, though single readings can be large or run the other way. The entries come from a sample that favours actives as a whole.
I would appreciate it if you answered using one of these outcomes: t (active), f (inactive)

See these solved cases before continuing.
## Input Record lookup: outcome of this test for CC(C)c1ccc(S(=O)(=O)NC2CCCC2)cc1 ?
## Output f

## Input Record lookup: outcome of this test for Nc1nnnn1/N=C/c1cccc(Br)c1 ?
## Output f

## Input Record lookup: outcome of this test for COc1ccc(N)c(OC)c1 ?
## Output f

Next:
## Input Record lookup: outcome of this test for CCN(CC)S(=O)(=O)c1cccc(-c2n[nH]c(=S)n2/N=C/c2ccc(C(=O)OC)cc2)c1 ?
## Output f

## Input Record lookup: outcome of this test for COc1ccc(C(=O)Nc2ccc(C(=O)NCC3CCCO3)cc2)c(OC)c1OC (stereo not given) ?
## Output f

## Input Record lookup: outcome of this test for COc1ccc(C2(C)NC(=O)N(CC(=O)c3ccc4c(c3)OCO4)C2=O)cc1 (stereo not given) ?
## Output f

## Input Record lookup: outcome of this test for Cc1ccc(OCCOc2cccc(/C=N/NC(N)=O)c2)cc1 ?
## Output f

###

# system: Nuclear receptor ROR-gamma (Mus musculus) (UniProt P51450)
# experiment_notes: qHTS for inhibitors of ROR gamma transcriptional activity; note: nearly all actives have a fitted effect of over 60% in size
# condition_details: Drosophila S2 Gal4-RORgamma UAS-luciferase reporter, 20 h; series mostly up to 53.6 µM
About 17,000 (5.5%) of roughly 310,000 compounds were called active. Inconclusive results (about 11%) are left out. Calls follow the shape of the dose curve; as a rule, active = well fitted inhibition curve with a large enough effect; inconclusive = small, poorly fitted or top-dose-only effect, or effect the other way; inactive = no such curve, though single readings can be large or run the other way. For the sample, actives were picked, then their nearest neighbours and some compounds at random.
I would appreciate it if you answered using one of these outcomes: active, inactive

See these solved cases before continuing.
## Input Record lookup: outcome of this test for Cc1ccc(C(=O)NC23CC4CC(CC(C4)C2)C3)c(Cl)c1 ?
## Output inactive

## Input Record lookup: outcome of this test for CNC(=O)NC(=O)CSc1nnc(-c2ccc(F)cc2)n1CC1CCCO1 (configuration not stated) ?
## Output inactive

## Input Record lookup: outcome of this test for CCc1cccc(CC)c1NC(=S)Nc1ccc2cn[nH]c2c1 ?
## Output inactive

## Input Record lookup: outcome of this test for NC(=O)CN1CCCC1c1ccc2c(c1)OCCO2 (configuration not stated) ?
## Output inactive

## Input Record lookup: outcome of this test for CN(Cc1ccccc1)C(=O)c1cccc(C(=O)N(C)Cc2ccccc2)c1 ?
## Output inactive

// next entry
## Input Record lookup: outcome of this test for CCOc1cc(/C=N/Nc2cc(C)nc3ccc(C)cc23)ccc1O ?
## Output inactive
